The reported numbers originate from ChEMBL document CHEMBL1777678.

# System: Plasmodium falciparum
# protocol-details: Antimalarial malarial activity against chloroquine-resistant Plasmodium falciparum K1 infected in human A positive erythrocytes assessed as inhibition of [3H]hypoxanthine incorporation after 24 hrs
# Type: functional, organism-based
property: log10 of IC50 (log10 of the value in µM)

>  <molecule>
CCN(CC)CCCC(C)NC(=O)c1sc(-c2ccccc2)nc1-c1ccccc1 (configuration not stated)

>  <assay-target>
Plasmodium falciparum

>  <measured-result>
0.58

$$$$
>  <molecule>
CCN(CC)CCCNC(=O)c1sc(-c2ccccc2)nc1-c1ccccc1

>  <assay-target>
Plasmodium falciparum

>  <measured-result>
1.12

$$$$
>  <molecule>
O=C(NCCCn1ccnc1)c1sc(-c2ccccc2)nc1-c1ccccc1

>  <assay-target>
Plasmodium falciparum

>  <measured-result>
1.06

$$$$
>  <molecule>
O=C(NCCN1CCCC1)c1sc(-c2ccccc2)nc1-c1ccccc1

>  <assay-target>
Plasmodium falciparum

>  <measured-result>
1.17

$$$$
>  <molecule>
O=C(c1sc(-c2ccccc2)nc1-c1ccccc1)N1CCC(N2CCCC2)CC1

>  <assay-target>
Plasmodium falciparum

>  <measured-result>
0.79

$$$$
>  <molecule>
CCN(CC)CCNC(=O)c1sc(-c2cccnc2)nc1-c1ccccc1

>  <assay-target>
Plasmodium falciparum

>  <measured-result>
0.72

$$$$
>  <molecule>
CN(C)CCNC(=O)c1sc(-c2ccccc2)nc1-c1ccccc1

>  <assay-target>
Plasmodium falciparum

>  <measured-result>
0.94

$$$$
>  <molecule>
CCN(CC)CCNC(=O)c1sc(-c2ccccc2)nc1-c1ccccc1

>  <assay-target>
Plasmodium falciparum

>  <measured-result>
-0.15

$$$$
>  <molecule>
O=C(c1sc(-c2ccccc2)nc1-c1ccccc1)N1CCC(N2CCCCC2)CC1

>  <assay-target>
Plasmodium falciparum

>  <measured-result>
-0.08

$$$$
>  <molecule>
CCN(CC)CCNC(=O)c1sc(-c2cccs2)nc1-c1ccccc1

>  <assay-target>
Plasmodium falciparum

>  <measured-result>
0.64

$$$$
>  <molecule>
O=C(NCc1ccccn1)c1sc(-c2ccccc2)nc1-c1ccccc1

>  <assay-target>
Plasmodium falciparum

>  <measured-result>
1.18

$$$$
>  <molecule>
CCN(CC)CCNC(=O)c1sc(-c2ccc(OC)cc2)nc1-c1ccccc1

>  <assay-target>
Plasmodium falciparum

>  <measured-result>
0.89

$$$$
